Recorded values, source ChEMBL document CHEMBL4138288.

# experiment notes: Cytotoxicity against human A4 cells assessed as reduction in cell viability after 24 hrs by MTT assay
# Type: functional, cell-based
pIC50: −log10 of the molar value.
experimental endpoint: pIC50

molecule="C[C@@]1(CC(O)c2ccoc2)C(C(=O)O)=CC[C@]2(C)[C@H]1[C@H]1C=C[C@@]2(O)C(=O)O1 (some centres not stated)" test_value="< 5.00"

Kindly indicate its recorded pIC50. Item: COC(=O)C1=C[C@H](O)C[C@H]2[C@@]1(C)C=C[C@](O)(C(=O)O)[C@@]2(C)CC(OC(C)=O)c1ccoc1 (some centres not stated)
< 5.00
